The reported numbers originate from the supplement of paper PMC11451515.

System: NOMO1
Protocol details: cell viability relative to DMSO control; higher = less cytotoxic
Condition parameters: RPMI 5 mM glucose + 10% dialyzed FBS; 48 h; 15.4 µM
Measurement name: cell viability (%)
Express it in %; write the number only.

Ask | What value of measured cell viability is listed for C=C[C@H]1CN2CCC1C[C@@H]2[C@@H](O)c1ccnc2ccccc12 (some centres undefined) ?
Reply | 85.4

Ask | Input O=C(O)CSCC(=O)NC1CCSC1=O (centres undefined)
Reply | 100

Ask | Input CC[C@H](NC(C)C)[C@H](O)c1ccc(O)c2[nH]c(=O)ccc12
Reply | 87

Ask | Input O=C(c1ccc(/C=C/c2n[nH]c3ccccc23)cc1)N1CCNCC1
Reply | 65.5

Ask | Input CCOC(CN1C(=O)[C@](CC(=O)Nc2ccc(C)cc2)(NC(=O)Nc2ccc(C)cc2)c2ccccc21)OCC
Reply | 93

Ask | Input C[C@H](NC(=O)Cc1cc(F)cc(F)c1)C(=O)N[C@@H]1C(=O)N(C)c2ccccc2-c2ccccc21
Reply | 63.6

Ask | Input CCc1cccc2c3c([nH]c12)C(CC)(CC(=O)O)OCC3 (centres undefined)
Reply | 82.9

Ask | Input O=[S+]([O-])(O)c1ccc2cc(/N=N/c3cc([S+](=O)([O-])O)c4cccnc4c3O)ccc2c1
Reply | 106

Ask | Input CC(=O)Oc1cc2c(s1)CCN(C(C(=O)C1CC1)c1ccccc1F)C2.Cl (centres undefined)
Reply | 40.3

---

System: P12-Ichikawa
Protocol details: AUC of viability dose-response curve (% viability x log10 dose units); higher = less sensitive
Condition parameters: RPMI 5 mM glucose + 10% dialyzed FBS; 48 h
Measurement name: AUC of viability dose-response curve
Would you mind answering with just the numeric figure?

Ask | What value of measured AUC of viability dose-response curve is listed for CNC(=O)c1ccc(N2C(=S)N(c3ccc(C#N)c(C(F)(F)F)c3)C(=O)C2(C)C)cc1F ?
Reply | 457

Ask | Input COc1cc(Nc2ncc(F)c(Nc3ccc4c(n3)N(COP(=O)(O)O)C(=O)C(C)(C)O4)n2)cc(OC)c1OC
Reply | 457

Ask | Input CCCCOc1ccc(CC(=O)NO)cc1
Reply | 454

Ask | Input C[N+](C)(C)CC(=O)O.[Cl-]
Reply | 411

---

Tested on: P12-Ichikawa
Protocol details: cell viability relative to DMSO control; higher = less cytotoxic
Condition parameters: RPMI 5 mM glucose + 10% dialyzed FBS; 48 h; 0.00234 µM
Measurement name: cell viability
Answer format: number, then unit.

Ask | What value of measured cell viability is listed for C[C@]12CC[C@@H]3c4ccc(O)cc4CC[C@H]3[C@@H]1CC[C@@H]2O ?
Reply | 111%

Ask | Input O=C(O)c1ccc(-c2c[nH]c3ncc(-c4ccccc4)cc23)cc1C1CCCC1
Reply | 124%

Ask | Input C/C(=C\c1csc(C)n1)[C@@H]1C[C@@H]2O[C@@H]2CCC[C@H](C)[C@H](O)[C@@H](C)C(=O)C(C)(C)[C@@H](O)CC(=O)O1
Reply | 27.9%

Ask | Input CC(Cc1ccc(O)c(O)c1)(NN)C(=O)O (stereo not given)
Reply | 116%

Ask | Input CC(C[N+](C)(C)C)OC(N)=O (stereo not given)
Reply | 119%

Ask | Input CCCNCC(O)COc1ccccc1C(=O)CCc1ccccc1 (stereo not given)
Reply | 103%

Ask | Input CN1/C=C(\N=C(NC2=CC=C(C=C2)C(=O)N3CCOCC3)/C1=O)/C4=C(C)C(=CC=C4)NC(=O)C5=CC=C(C=C5)C(C)(C)C
Reply | 111%

Ask | Input CN(c1nccc(=O)[nH]1)C1CCN(c2nc3ccccc3n2Cc2ccc(F)cc2)CC1
Reply | 108%

Ask | Input Cc1cccc(N(C)C(=S)Oc2ccc3ccccc3c2)c1
Reply | 101%

Ask | Input CCc1cccc2c3c([nH]c12)C(CC)(CC(=O)O)OCC3 (stereo not given)
Reply | 98%
